# measurement_target: human CGT (ceramide galactosyltransferase), CHO/CGT lysate (Homo sapiens)
# Construct: Full-length human CGT cDNA was cloned into the BamH1/Xho1 site of pcDNA3.1 (+); expressed in transfected cells; host or cells: Chinese hamster ovary (CHO) cells; lysate prepared with M-PER
# Sequence (Q16880 21-541): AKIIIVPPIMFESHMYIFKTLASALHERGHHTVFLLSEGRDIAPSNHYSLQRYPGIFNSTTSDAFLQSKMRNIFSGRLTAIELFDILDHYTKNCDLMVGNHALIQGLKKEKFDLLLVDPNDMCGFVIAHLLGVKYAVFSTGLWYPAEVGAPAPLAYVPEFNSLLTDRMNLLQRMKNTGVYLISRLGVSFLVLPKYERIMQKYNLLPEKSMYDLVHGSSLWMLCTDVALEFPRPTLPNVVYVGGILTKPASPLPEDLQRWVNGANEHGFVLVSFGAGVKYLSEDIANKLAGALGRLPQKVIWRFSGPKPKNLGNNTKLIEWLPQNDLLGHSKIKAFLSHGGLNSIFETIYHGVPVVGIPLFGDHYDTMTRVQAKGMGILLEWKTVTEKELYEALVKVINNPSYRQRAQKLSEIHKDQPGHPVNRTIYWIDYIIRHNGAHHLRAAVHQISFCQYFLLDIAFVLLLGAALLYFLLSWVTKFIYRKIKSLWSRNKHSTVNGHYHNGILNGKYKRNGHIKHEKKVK
# test_name: CGT enzyme assay, RapidFire/MS/MS readout with 0.01% Tween added (Table 1 ranges with two asterisks **)
# Assay type: biochemical
# condition_notes: CGT enzymatic assay; range with two asterisks (**): RapidFire/MS/MS method with 0.01% Tween added
pIC50: −log10 of the molar value. Where a name gives a salt, the structure may show the parent alone.
Would you mind telling me the reported pIC50 of each entry?

For human CGT (ceramide galactosyltransferase), CHO/CGT lysate (Homo sapiens), provide pIC50 of O=C([C@@H](NS(=O)(=O)c1ccc2cc(OC3CCCC3)ccc2c1)C(F)(F)c1ccc(-c2ccc(Cl)cc2)cc1)N1CC[C@@H]2CNC[C@@H]21 [Compound 192-3] please.
> 6.00

# get_value(readout= pIC50, system= human CGT (ceramide galactosyltransferase), CHO/CGT lysate (Homo sapiens)) for NC(=NO)C1CCN(C(=O)[C@H](NS(=O)(=O)c2ccc3cc(OC4CCCC4)ccc3c2)C(F)(F)c2ccc(-c3ccc(Cl)cc3)cc2)CC1 [Compound 174-2]
4.00 to 4.52

I'm curious: which pIC50 was measured for COc1cc(C(F)(F)[C@H](NS(=O)(=O)c2ccc(OCC3CCCCC3)cc2)C(=O)N2C[C@H]3CNC[C@H]3C2)ccc1-c1ccc(Cl)cc1 [Compound 190-1] tested on human CGT (ceramide galactosyltransferase), CHO/CGT lysate (Homo sapiens)?
5.00 to 6.00

Form field: pIC50 recorded for N[C@H]1CCN(C(=O)[C@@H](NS(=O)(=O)c2ccc(OCC3CCCCC3)cc2)C(F)(F)c2ccc(Cl)cc2)C1 [Compound 186-1] with human CGT (ceramide galactosyltransferase), CHO/CGT lysate (Homo sapiens) (enter value)
5.00 to 6.00

Request: pIC50, test system human CGT (ceramide galactosyltransferase), CHO/CGT lysate (Homo sapiens), entry NC1CCN(C(=O)[C@H](NC(=O)[C@@H](O)c2ccc3cc(OC4CCCC4)ccc3c2)C(F)(F)c2ccc(-c3ccc(Cl)cc3)cc2)CC1 [Compound 159-2, trifluoroacetate]
4.00 to 4.52

Give the reported pIC50 for CCCOc1cc(C(F)(F)[C@@H](NS(=O)(=O)c2ccc3cc(OC4CCCC4)ccc3c2)C(=O)N2CCC(N)CC2)ccc1Cl [Compound 169-2] (system: human CGT (ceramide galactosyltransferase), CHO/CGT lysate (Homo sapiens)).
5.00 to 6.00

FYI, the data here is from patent US20190322676A1.
